- target entity: T1, motilin receptor spliced form A (MTL-R1A), human (human, UniProt O43193 1-412)
- T1 construct: Full-length 412 aa seven-transmembrane receptor, transiently expressed in HEK-293/aeq17 cells; also called MTL-1A; MTL1-A
- T1 sequence (O43193 whole entry, canonical isoform): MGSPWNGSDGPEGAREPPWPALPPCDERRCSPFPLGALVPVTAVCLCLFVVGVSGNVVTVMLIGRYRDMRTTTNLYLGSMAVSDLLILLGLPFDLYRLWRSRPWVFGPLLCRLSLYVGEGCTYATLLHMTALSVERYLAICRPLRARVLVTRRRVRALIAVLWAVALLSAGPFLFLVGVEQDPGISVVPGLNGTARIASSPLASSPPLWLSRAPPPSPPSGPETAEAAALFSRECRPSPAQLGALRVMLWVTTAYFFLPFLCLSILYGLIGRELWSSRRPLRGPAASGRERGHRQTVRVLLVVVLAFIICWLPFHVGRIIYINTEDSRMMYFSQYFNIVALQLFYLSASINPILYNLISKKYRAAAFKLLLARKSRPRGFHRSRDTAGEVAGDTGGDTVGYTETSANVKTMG
- measurement description: direct radioligand binding on cell membranes from transfected cells
No end group written: not given here. *: point of attachment. 125I = [125I]*
quantity kind: pKd
When answering, recall that pKd equals minus log10 of the concentration in mol/L, and write that number alone.

Req: Check the records and state pKd for FVPIFTY(125I)GELQRMQEKERNKGQ (peptide, UniProt P12872 26-47, looked up, mature) [[125I]-Tyr7-human motilin]
Resp: 10.00
